measured on: GOBP2 (Conogethes punctiferalis)
experiment: Fluorescence competitive binding assay with 1-NPN, recombinant GOBP2
experimental conditions: 1-NPN fluorescence remaining in competitive binding; pH 7.4; 2 µM protein, 2 µM 1-NPN; mean ± SD, triplicates
attribute measured: Intensity (%) GOBP2

{"columns": ["molecule", "number"],
 "data": [
  ["C=C(C)[C@H]1CC=C(C)CC1 [Limonene]", 92.62],
  ["CCCCCCCCCCC=O [Undecanal]", 98.12],
  ["CC1=CCC2CC1C2(C)C (stereo not drawn) [α-Pinene]", 98.57],
  ["C=C1CCC2CC1C2(C)C (stereo not drawn) [β-Pinene]", 97.15],
  ["CCCCCCCCCCCCCCCC=O [Hexadecanal]", 67.94],
  ["CCCCC/C=C/CCCCCCCCC=O [E10-16:Ald, (E)-10-hexadecenal]", 84.05],
  ["CCCCCCCCC=O [Nonanal]", 96.99],
  ["CC/C=C\\CCO [Cis-3-hexen-1-ol]", 96.93],
  ["CCCCC/C=C\\CCCCCCCCC=O [Z10-16:Ald, (Z)-10-hexadecenal]", 58.63],
  ["CCCCCCO [n-Hexanol]", 94.24],
  ["CCCCCCC=O [Heptanal]", 96.80],
  ["CCCCCC=O [n-Hexanal]", 96.44]
]}

====

IC50 by entry:
measured on: GOBP1 (Conogethes punctiferalis, UniProt A0A2H4FXX2)
Sequence (A0A2H4FXX2 entry or part of it): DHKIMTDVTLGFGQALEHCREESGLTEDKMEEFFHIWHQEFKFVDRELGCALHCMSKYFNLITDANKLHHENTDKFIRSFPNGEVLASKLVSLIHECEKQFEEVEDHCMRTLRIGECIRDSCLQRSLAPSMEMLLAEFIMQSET
experiment: Fluorescence competitive binding assay with 1-NPN, recombinant GOBP1
attribute measured: IC50

{"columns": ["compound", "measured on", "result"],
 "data": [
  ["C=CC(C)(O)CCC=C(C)C (stereo not drawn)", "GOBP1 (Conogethes punctiferalis, UniProt A0A2H4FXX2)", "15.7 µM"],
  ["CC/C=C\\CCO [Cis-3-hexen-1-ol]", "GOBP1 (Conogethes punctiferalis, UniProt A0A2H4FXX2)", "78.6 µM"],
  ["CC1=CCC2CC1C2(C)C (stereo not drawn)", "GOBP1 (Conogethes punctiferalis, UniProt A0A2H4FXX2)", "11.1 µM"],
  ["CCCCCCCCCCCCCCO", "GOBP1 (Conogethes punctiferalis, UniProt A0A2H4FXX2)", "4.81 µM"],
  ["C=C1CCC2CC1C2(C)C (stereo not drawn)", "GOBP1 (Conogethes punctiferalis, UniProt A0A2H4FXX2)", "9.94 µM"],
  ["O=Cc1ccccc1", "GOBP1 (Conogethes punctiferalis, UniProt A0A2H4FXX2)", "20.6 µM"]
]}

====

measured on: GOBP1 (Conogethes punctiferalis, UniProt A0A2H4FXX2)
experiment: Fluorescence competitive binding assay with 1-NPN, recombinant GOBP1
experimental conditions: 1-NPN fluorescence remaining in competitive binding; pH 7.4; 2 µM protein, 2 µM 1-NPN; mean ± SD, triplicates
The recorded Intensity (%) GOBP1 of each item maps onto one of these classes: low bracket (below 50%), middle bracket (50% to below 80%), high bracket (80% or more)

{"columns": ["compound", "label class"],
 "data": [
  ["CCCCCO", "high bracket"],
  ["CC(C)=CCC/C(C)=C/CC/C(C)=C/CO", "low bracket"],
  ["CCCCCCCCCCCCCCO", "low bracket"],
  ["CCCCC/C=C\\CCCCCCCCC=O [Z10-16:Ald, (Z)-10-hexadecenal]", "low bracket"],
  ["C=C1CC/C=C(\\C)CC[C@@H]2[C@@H]1CC2(C)C", "middle bracket"],
  ["CCCCCCO", "high bracket"],
  ["CCCCCCCCC=O", "middle bracket"],
  ["C=CC(C)(O)CCC=C(C)C (stereo not drawn)", "middle bracket"],
  ["C=C(C)[C@H]1CC=C(C)CC1", "low bracket"],
  ["CCCCCC=O", "low bracket"],
  ["CCCCCCC=O", "middle bracket"],
  ["O=Cc1ccccc1", "high bracket"],
  ["CCCCC/C=C/CCCCCCCCC=O [E10-16:Ald, (E)-10-hexadecenal]", "low bracket"],
  ["CC/C=C\\CCO [Cis-3-hexen-1-ol]", "high bracket"],
  ["CC1=CCC2CC1C2(C)C (stereo not drawn)", "middle bracket"],
  ["C=C1CCC2CC1C2(C)C (stereo not drawn)", "middle bracket"]
]}

====

measured on: GOBP2 (Conogethes punctiferalis, UniProt A0A146JYY2)
Sequence (A0A146JYY2 entry or part of it): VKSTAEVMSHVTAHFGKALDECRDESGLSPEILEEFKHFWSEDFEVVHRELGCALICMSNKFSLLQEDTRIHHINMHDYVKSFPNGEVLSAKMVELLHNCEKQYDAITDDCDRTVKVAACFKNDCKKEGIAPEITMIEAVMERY
experiment: Fluorescence competitive binding assay with 1-NPN, recombinant GOBP2
experimental conditions: dissociation constant calculated from IC50: KD = [IC50]/(1+[1-NPN]/K1-NPN); pH 7.4; mean ± SD; read-out: KD (μM) GOBP2
Lab note: compare Kd with 9 µM, writing T if less and F if equal or more.

{"columns": ["molecule", "label class"],
 "data": [
  ["CCCCCCCCCCCCCCCC=O [Hexadecanal]", "T"],
  ["C=C(C)[C@H]1CC=C(C)CC1 [Limonene]", "F"],
  ["CCCCCCCCC=O [Nonanal]", "F"],
  ["CCCCCC=O [n-Hexanal]", "F"],
  ["CCCCC/C=C\\CCCCCCCCC=O [Z10-16:Ald, (Z)-10-hexadecenal]", "T"],
  ["CC(C)=CCC/C(C)=C/CC/C(C)=C/CO [Farnesol]", "T"],
  ["CCCCCCC=O [Heptanal]", "F"]
]}

====

Kd by entry:
measured on: GOBP2 (Conogethes punctiferalis)
experiment: Fluorescence competitive binding assay with 1-NPN, recombinant GOBP2
experimental conditions: dissociation constant calculated from IC50: KD = [IC50]/(1+[1-NPN]/K1-NPN); pH 7.4; mean ± SD; read-out: KD (μM) GOBP2

{"columns": ["molecule", "Kd"],
 "data": [
  ["CCCCCCCCCCC=O", "39.9 µM"],
  ["CCCCC/C=C/CCCCCCCCC=O [E10-16:Ald, (E)-10-hexadecenal]", "8.86 µM"],
  ["C=C1CC/C=C(\\C)CC[C@@H]2[C@@H]1CC2(C)C", "8.67 µM"]
]}

====

measured on: GOBP1 (Conogethes punctiferalis)
experiment: Fluorescence competitive binding assay with 1-NPN, recombinant GOBP1
Lab note: compare Kd with 4 µM, writing condition met if less and condition not met if equal or more.

{"columns": ["molecule", "label class"],
 "data": [
  ["c1ccc(Nc2cccc3ccccc23)cc1 [1-NPN, N-phenyl-1-naphthylamine, reference compound]", "condition met"],
  ["CCCCCCCCCCCCCCO", "condition met"],
  ["CC1=CCC2CC1C2(C)C (stereo not shown)", "condition not met"],
  ["O=Cc1ccccc1", "condition not met"],
  ["C=CC(C)(O)CCC=C(C)C (stereo not shown)", "condition not met"],
  ["C=C1CCC2CC1C2(C)C (stereo not shown)", "condition not met"],
  ["CC/C=C\\CCO [Cis-3-hexen-1-ol]", "condition not met"]
]}

====

IC50 by entry:
measured on: GOBP1 (Conogethes punctiferalis)
experiment: Fluorescence competitive binding assay with 1-NPN, recombinant GOBP1
experimental conditions: ligand concentration halving initial 1-NPN fluorescence; pH 7.4; mean ± SD; read-out: IC50 (μM) GOBP1
attribute measured: IC50

{"columns": ["compound", "result"],
 "data": [
  ["CCCCCC=O [n-Hexanal]", "7.31 µM"],
  ["CCCCCCO [n-Hexanol]", "60.4 µM"],
  ["CCCCCCCCC=O [Nonanal]", "13.3 µM"],
  ["CCCCC/C=C/CCCCCCCCC=O [E10-16:Ald, (E)-10-hexadecenal]", "4.9 µM"],
  ["CCCCC/C=C\\CCCCCCCCC=O [Z10-16:Ald, (Z)-10-hexadecenal]", "2.82 µM"],
  ["CC(C)=CCC/C(C)=C/CC/C(C)=C/CO [Farnesol]", "0.83 µM"],
  ["CCCCCO [1-Amyl alcohol]", "33.5 µM"],
  ["C=C(C)[C@H]1CC=C(C)CC1 [Limonene]", "3.62 µM"],
  ["C=C1CC/C=C(\\C)CC[C@@H]2[C@@H]1CC2(C)C [Caryophllene]", "9.09 µM"],
  ["CCCCCCCCCCC=O [Undecanal]", "16.8 µM"],
  ["CCCCCCCCCCCCCCCC=O [Hexadecanal]", "1.29 µM"],
  ["CCCCCCC=O [Heptanal]", "13.5 µM"]
]}
